# Tgt: Vasopressin V1 receptor (Rattus norvegicus, UniProt P48974+P30560)
# Protocol Text: pA2 value was determined for Vasopressin V1 receptor antagonistic activity in vivo in anesthetized rats
# Format: functional, organism-based
Assay Endpoint: pA2

>>> readout_number("CCOc1ccc(C[C@@H](NC(=O)Cc2ccccc2)C(=O)N[C@@H](Cc2ccccc2)C(=O)N[C@H](C(=O)N[C@@H](CC(N)=O)C(=O)N[C@@H](CCCCN)C(=O)N2CCC[C@H]2C(=O)N[C@@H](CCCN=C(N)N)C(N)=O)C(C)C)cc1")
8.81
>>> readout_number("CCOc1ccc(C[C@@H](NC(=O)CC23CC4CC(CC(C4)C2)C3)C(=O)N[C@@H](Cc2ccccc2)C(=O)N[C@H](C(=O)N[C@@H](CC(N)=O)C(=O)N[C@@H](CCCN)C(=O)N2CCC[C@H]2C(=O)N[C@@H](CCCN=C(N)N)C(=O)N[C@@H](CCCN=C(N)N)C(N)=O)C(C)C)cc1")
7.64
>>> readout_number("CCOc1ccc(C[C@@H](NC(=O)CC(C)(C)C)C(=O)N[C@@H](Cc2ccccc2)C(=O)N[C@@H](CCC(N)=O)C(=O)N[C@@H](CC(N)=O)C(=O)N[C@@H](CCCCN)C(=O)N2CCC[C@H]2C(=O)N[C@@H](CCCN=C(N)N)C(N)=O)cc1")
8.4
>>> readout_number("CCOc1ccc(C[C@@H](NC(=O)Cc2ccccc2)C(=O)N[C@@H](Cc2ccccc2)C(=O)N[C@H](C(=O)N[C@@H](CC(N)=O)C(=O)N[C@@H](CCCCN)C(=O)N2CCC[C@H]2C(=O)N[C@@H](CCCN=C(N)N)C(=O)N[C@@H](CCCN=C(N)N)C(N)=O)C(C)C)cc1")
8.47
>>> readout_number("CCOc1ccc(C[C@@H](NC(=O)CC(C)(C)C)C(=O)N[C@@H](Cc2ccccc2)C(=O)N[C@H](C(=O)N[C@@H](CC(N)=O)C(=O)N[C@@H](CCCN=C(N)N)C(=O)N(C)[C@@H](C)C(=O)N[C@@H](CCCN=C(N)N)C(N)=O)C(C)C)cc1")
8.34
>>> readout_number("CCOc1ccc(C[C@H]2NC(=O)CC3(CCCCC3)SSC[C@H](C(=O)N3CCC[C@H]3C(=O)N[C@@H](CCCN=C(N)N)C(=O)NCC(N)=O)NC(=O)[C@@H](CC(N)=O)NC(=O)[C@H](C(C)C)NC(=O)[C@@H](Cc3ccccc3)NC2=O)cc1")
8.22
>>> readout_number("CCOc1ccc(C[C@@H](NC(=O)CC23CC4CC(CC(C4)C2)C3)C(=O)N[C@@H](Cc2ccccc2)C(=O)N[C@H](C(=O)N[C@@H](CC(N)=O)C(=O)N[C@@H](CCCN)C(=O)N2CCC[C@H]2C(=O)N[C@@H](CCCN=C(N)N)C(N)=O)C(C)C)cc1")
7.33
>>> readout_number("COc1ccc(C[C@@H](NC(=O)Cc2ccccc2)C(=O)N[C@@H](Cc2ccccc2)C(=O)N[C@@H](CCC(N)=O)C(=O)N[C@@H](CC(N)=O)C(=O)N[C@@H](CCCCN)C(=O)N2CCC[C@H]2C(=O)N[C@@H](CCCN=C(N)N)C(N)=O)cc1")
8.93
>>> readout_number("CCOc1ccc(C[C@@H](NC(=O)CC23C[C@H]4C[C@@H](C2)C[C@@H](C3)C4)C(=O)N[C@@H](Cc2ccccc2)C(=O)N[C@H](C(=O)N[C@@H](CC(N)=O)C(=O)NCCCC(=O)N2CCC[C@H]2C(=O)N[C@@H](CCCN=C(N)N)C(=O)N[C@@H](CCCN=C(N)N)C(N)=O)C(C)C)cc1")
7.75
>>> readout_number("CCOc1ccc(C[C@@H](NC(=O)Cc2ccccc2)C(=O)N[C@@H](Cc2ccccc2)C(=O)N[C@@H](CCC(N)=O)C(=O)N[C@@H](CC(N)=O)C(=O)N[C@@H](CCCCN)C(=O)N2CCC[C@H]2C(=O)N[C@@H](CCCN=C(N)N)C(N)=O)cc1")
9.05
>>> readout_number("NCCCC[C@H](NC(=O)[C@H](CC(N)=O)NC(=O)[C@H](CCC(N)=O)NC(=O)[C@H](Cc1ccccc1)NC(=O)[C@@H](Cc1ccc(O)cc1)NC(=O)Cc1ccccc1)C(=O)N1CCC[C@H]1C(=O)N[C@@H](CCCN=C(N)N)C(N)=O")
8.91
>>> readout_number("CCOc1ccc(C[C@@H](NC(=O)CC(C)(C)C)C(=O)N[C@@H](Cc2ccccc2)C(=O)N[C@H](C(=O)N[C@@H](CC(N)=O)C(=O)NCCCC(=O)N2CCC[C@H]2C(=O)N[C@@H](CCCN=C(N)N)C(=O)N[C@@H](CCCN=C(N)N)C(N)=O)C(C)C)cc1")
7.99
>>> readout_number("CCOc1ccc(C[C@@H](NC(=O)Cc2ccccc2)C(=O)N[C@@H](Cc2ccccc2)C(=O)N[C@H](C(=O)N[C@@H](CC(N)=O)C(=O)N[C@@H](CCCN)C(=O)N2CCC[C@H]2C(=O)N[C@@H](CCCN=C(N)N)C(=O)N[C@@H](CCCN=C(N)N)C(N)=O)C(C)C)cc1")
8.39
>>> readout_number("CC(C)[C@H](NC(=O)[C@H](Cc1ccccc1)NC(=O)[C@@H](Cc1ccc(O)cc1)NC(=O)Cc1ccccc1)C(=O)N[C@@H](CC(N)=O)C(=O)N[C@@H](CCCN=C(N)N)C(=O)N1CCC[C@H]1C(=O)N[C@@H](CCCN=C(N)N)C(=O)N[C@@H](CCCN=C(N)N)C(N)=O")
8.62
>>> readout_number("COc1ccc(C[C@@H](NC(=O)Cc2ccccc2)C(=O)N[C@@H](Cc2ccccc2)C(=O)N[C@H](C(=O)N[C@@H](CC(N)=O)C(=O)N[C@@H](CCCCN)C(=O)N2CCC[C@H]2C(=O)N[C@@H](CCCN=C(N)N)C(N)=O)C(C)C)cc1")
8.61
